Molecular target: activated MMP-8 enzyme (Homo sapiens, UniProt P22894)
Sequence (P22894 101-467): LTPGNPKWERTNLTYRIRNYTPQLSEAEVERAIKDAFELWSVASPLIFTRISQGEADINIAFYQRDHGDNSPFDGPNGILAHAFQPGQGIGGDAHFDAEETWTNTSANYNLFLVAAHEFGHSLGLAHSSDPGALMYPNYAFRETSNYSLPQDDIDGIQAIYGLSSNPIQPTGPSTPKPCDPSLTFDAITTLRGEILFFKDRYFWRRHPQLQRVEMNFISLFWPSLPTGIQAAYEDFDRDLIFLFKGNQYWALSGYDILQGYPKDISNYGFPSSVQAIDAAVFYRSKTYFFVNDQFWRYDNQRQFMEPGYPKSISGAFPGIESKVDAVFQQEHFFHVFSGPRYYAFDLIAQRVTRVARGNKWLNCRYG
Test: Assay for determining MMP-8 inhibition (OmniMMP fluorescent substrate)
Details: read-out: MMP-8 Activity (IC50 MMP-8), Group
pIC50: −log10 of the molar value.
valueType: pIC50

As a guide, the following entries are already answered.
>>> datavalue("CCc1ccc2nc(C(=O)NCc3ccc4c(c3)NC(=O)CO4)[nH]c(=O)c2c1")
"> 6.60"
>>> datavalue("Nc1c(N2CCc3ccc(CNC(=O)c4nc5scc(-c6ccco6)c5c(=O)[nH]4)cc3C2)c(=O)c1=O")
"4.70 to 6.60"
>>> datavalue("O=C1COc2ccc(CNC(=O)c3nc4scc(-c5nccs5)c4c(=O)[nH]3)cc2N1")
"4.70 to 6.60"

*Q* Which pIC50 is reported for this compound? `C#Cc1ccc2nc(C(=O)NCc3ccc4c(c3)NC(=O)CO4)[nH]c(=O)c2c1`
*A* > 6.60

*Q* Could you do the same for `Nc1c(N2CCc3ccc(CNC(=O)c4nc5scc(-c6cccs6)c5c(=O)[nH]4)cc3C2)c(=O)c1=O` , please?
*A* 4.70 to 6.60

*Q* Could you do the same for `O=C1COc2ccc(CNC(=O)c3nc4ccsc4c(=O)[nH]3)cc2N1` , please?
*A* 4.70 to 6.60

*Q* Could you do the same for `Cc1c(C(=O)Nc2ccccc2)sc2nc(C(=O)NCc3ccc4c(c3)NC(=O)CO4)[nH]c(=O)c12` , please?
*A* 4.70 to 6.60

*Q* Could you do the same for `O=C1COc2ccc(CNC(=O)c3nc4ccc(Br)cc4c(=O)[nH]3)cc2N1` , please?
*A* > 6.60

###

Consider molecules characterized by their IC50 with catalytic domain of MMP-3 enzyme (Homo sapiens, UniProt P08254).
Sequence (P08254 100-272 limits assumed): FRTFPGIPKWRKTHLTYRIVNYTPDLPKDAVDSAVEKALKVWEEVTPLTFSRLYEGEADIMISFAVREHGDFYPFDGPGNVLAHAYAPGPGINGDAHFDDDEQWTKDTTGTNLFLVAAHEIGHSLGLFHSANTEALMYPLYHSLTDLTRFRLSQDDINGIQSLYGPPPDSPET

As a guide, the following entries are already answered.
>>> datavalue("O=C1COc2ccc(CNC(=O)c3nc4cc(Br)ccc4c(=O)[nH]3)cc2N1 [2/39]")
"250 to 20000 nM"
>>> datavalue("O=C1COc2ccc(CNC(=O)c3nc4ccc(F)cc4c(=O)[nH]3)cc2N1 [2/23]")
"< 250 nM"
>>> datavalue("CC(=O)NCc1ccc2nc(C(=O)NCc3ccc4c(c3)NC(=O)CO4)[nH]c(=O)c2c1 [2/91]")
"< 250 nM"
>>> datavalue("COC(=O)c1cccc2nc(C(=O)NCc3ccc4c(c3)NC(=O)CO4)[nH]c(=O)c12 [Example 36]")
"250 to 20000 nM"
>>> datavalue("Cc1sc2nc(C(=O)NCc3ccc4c(c3)NC(=O)CO4)[nH]c(=O)c2c1C(C)c1ccccc1 (centres unmarked) [2/373]")
"250 to 20000 nM"

*Q* # query: IC50 | item Cc1sc2nc(C(=O)NCc3ccc4c(c3)NC(=O)CO4)[nH]c(=O)c2c1C [2/46] | system: catalytic domain of MMP-3 enzyme (Homo sapiens, UniProt P08254)
*A* 250 to 20000 nM

*Q* Could you do the same for CC(C)(C)OC(=O)NCc1ccc2nc(C(=O)NCc3ccc4c(c3)NC(=O)CO4)[nH]c(=O)c2c1 [Example 14] , please?
*A* 250 to 20000 nM

*Q* Could you do the same for CNC(=O)C(C)c1csc2nc(C(=O)NCc3ccc4c(c3)NC(=O)CO4)[nH]c(=O)c12 (centres unmarked) [2/183] , please?
*A* 250 to 20000 nM

###

Consider compounds characterized by their pIC50 with catalytic domain of MMP-3 enzyme (Homo sapiens, UniProt P08254).
pIC50: −log10 of the molar value.

As a guide, the following entries are already answered.
>>> datavalue("N#Cc1ccc2nc(C(=O)NCc3ccc4c(c3)NC(=O)CO4)[nH]c(=O)c2c1")
"> 6.60"
>>> datavalue("O=C1COc2ccc(CNC(=O)c3nc4[nH]ncc4c(=O)[nH]3)cc2N1")
"4.70 to 6.60"
>>> datavalue("O=C1COc2ccc(CNC(=O)c3nc4cccc(NCc5ccccc5)c4c(=O)[nH]3)cc2N1")
"4.70 to 6.60"

Here is the next item to consider.
*Q* Which pIC50 is reported for this compound? `O=C(Cc1csc2nc(C(=O)NCc3ccc4c(c3)NC(=O)CO4)[nH]c(=O)c12)NCS(=O)(=O)O`
*A* 4.70 to 6.60

###

Consider compounds characterized by their pIC50 with catalytic domain of MMP-13 enzyme (Homo sapiens, UniProt P45452).
pIC50: −log10 of the molar value.

As a guide, the following entries are already answered.
>>> datavalue("Cc1noc2nc(C(=O)NCc3ccc4c(c3)NC(=O)CO4)[nH]c(=O)c12")
"4.70 to 7.00"
>>> datavalue("O=C1COc2ccc(CNC(=O)c3nc4scc(C(F)(F)F)c4c(=O)[nH]3)cc2N1")
"> 7.00"
>>> datavalue("CNC(=O)Cc1csc2nc(C(=O)NCc3ccc4c(c3)NC(=O)CO4)[nH]c(=O)c12")
"> 7.00"

Here is the next item to consider.
*Q* Which pIC50 is reported for this compound? `N#Cc1ccc2nc(C(=O)NCc3ccc4c(c3)NC(=O)CO4)[nH]c(=O)c2c1`
*A* > 7.00

###

Consider compounds characterized by their IC50 with catalytic domain of MMP-3 enzyme (Homo sapiens).

>>> datavalue("Cc1nsc2nc(C(=O)NCc3ccc4c(c3)CN(c3c(N)c(=O)c3=O)CC4)[nH]c(=O)c12 [2/134]")
"< 250 nM"
>>> datavalue("O=C1COc2ccc(CNC(=O)c3nc4ccc(CNC(=O)c5ccccc5)cc4c(=O)[nH]3)cc2N1 [2/93]")
"250 to 20000 nM"
>>> datavalue("CN(C)C(=O)Cc1csc2nc(C(=O)NCc3ccc4c(c3)NC(=O)CO4)[nH]c(=O)c12 [2/160]")
"250 to 20000 nM"

Here is the next item to consider.
*Q* Which IC50 is reported for this compound? Cc1sc2nc(C(=O)NCc3ccc4c(c3)NC(=O)CO4)[nH]c(=O)c2c1-c1ccccc1 [2/105]
*A* 250 to 20000 nM

###

Recorded measurements of IC50, one per entry
Molecular target: activated MMP-8 enzyme (Homo sapiens)
Assay: Assay for determining MMP-8 inhibition (OmniMMP fluorescent substrate)
Settings: read-out: MMP-8 Activity (IC50 MMP-8), Group

As a guide, the following entries are already answered.
>>> datavalue("O=C1COc2ccc(CNC(=O)c3nc4scc(-c5cnccn5)c4c(=O)[nH]3)cc2N1 [2/185]")
"250 to 20000 nM"
>>> datavalue("CNC(=O)C(C)c1csc2nc(C(=O)NCc3ccc4c(c3)NC(=O)CO4)[nH]c(=O)c12 (stereo not drawn) [2/183]")
"< 250 nM"
>>> datavalue("O=C1COc2ccc(CNC(=O)c3nc4scc(-c5cccnc5)c4c(=O)[nH]3)cc2N1 [2/115]")
"250 to 20000 nM"
>>> datavalue("O=C1COc2ccc(CNC(=O)c3nc4ccc(Cl)cc4c(=O)[nH]3)cc2N1 [2/26]")
"< 250 nM"
>>> datavalue("O=C(NCc1ccc2c(c1)CCO2)c1nc2ccccc2c(=O)[nH]1 [2/7]")
"250 to 20000 nM"

*Q* Which IC50 is reported for this molecule? Cc1c(CO)sc2nc(C(=O)NCc3ccc4c(c3)NCCO4)[nH]c(=O)c12 [Example 20c]
*A* < 250 nM

*Q* Could you do the same for Cc1sc2nc(C(=O)NCc3ccc4c(c3)NC(=O)CO4)[nH]c(=O)c2c1-c1ccccc1 [2/105] , please?
*A* 250 to 20000 nM

*Q* Could you do the same for O=C(NCc1ccc2c(c1)OC(F)(F)O2)c1nc2ccccc2c(=O)[nH]1 [2/6] , please?
*A* 250 to 20000 nM

*Q* Could you do the same for C[C@@H](O)CNc1cccc2nc(C(=O)NCc3ccc4c(c3)NC(=O)CO4)[nH]c(=O)c12 [36/12] , please?
*A* < 250 nM

*Q* Could you do the same for Cc1sc2nc(C(=O)NCc3ccc4c(c3)NC(=NO)CO4)[nH]c(=O)c2c1C [2/275] , please?
*A* < 250 nM

*Q* Could you do the same for O=C1COc2ccc(CNC(=O)c3nc4cc(Br)ccc4c(=O)[nH]3)cc2N1 [2/39] , please?
*A* < 250 nM

###

Molecular target: activated MMP-8 enzyme (Homo sapiens, UniProt P22894)
Test: Assay for determining MMP-8 inhibition (OmniMMP fluorescent substrate)
Settings: read-out: MMP-8 Activity (IC50 MMP-8), Group
valueType: IC50

As a guide, the following entries are already answered.
>>> datavalue("Nc1c(N2CCc3ccc(CNC(=O)c4nc5scc(-c6ccccc6)c5c(=O)[nH]4)cc3C2)c(=O)c1=O")
"0.25 to 20 µM"
>>> datavalue("O=C1COc2ccc(CNC(=O)c3nc4cc(C(F)(F)F)ccc4c(=O)[nH]3)cc2N1")
"< 0.25 µM"
>>> datavalue("CCOC(=O)c1sc2nc(C(=O)NCc3ccc4c(c3)NC(=O)CO4)[nH]c(=O)c2c1C")
"0.25 to 20 µM"
>>> datavalue("O=C1COc2cc(CNC(=O)c3nc4ccc(Cl)cc4c(=O)[nH]3)ccc2N1")
"0.25 to 20 µM"
>>> datavalue("COC(=O)c1cccc2nc(C(=O)NCc3ccc4c(c3)NC(=O)CO4)[nH]c(=O)c12")
"0.25 to 20 µM"
>>> datavalue("C[C@@H](NC(=O)c1ccccc1)c1ccc2nc(C(=O)NCc3ccc4c(c3)NC(=O)CO4)[nH]c(=O)c2c1")
"< 0.25 µM"

*Q* Which IC50 is reported for this compound? `C=Cc1ccc2nc(C(=O)NCc3ccc4c(c3)NC(=O)CO4)[nH]c(=O)c2c1`
*A* < 0.25 µM

*Q* Could you do the same for `C[C@@H](Nc1cccc2nc(C(=O)NCc3ccc4c(c3)NC(=O)CO4)[nH]c(=O)c12)C(=O)OC(C)(C)C` , please?
*A* < 0.25 µM

*Q* Could you do the same for `C[C@@H](Nc1cccc2nc(C(=O)NCc3ccc4c(c3)NC(=O)CO4)[nH]c(=O)c12)c1ccccc1` , please?
*A* < 0.25 µM

*Q* Could you do the same for `CN(C)C(=O)Cc1csc2nc(C(=O)NCc3ccc4c(c3)NC(=O)CO4)[nH]c(=O)c12` , please?
*A* < 0.25 µM

*Q* Could you do the same for `O=C1COc2ccc(CNC(=O)c3nc4ccc(F)cc4c(=O)[nH]3)cc2N1` , please?
*A* < 0.25 µM
